Assignment: determine reported AC50 for the given compounds.
Biological target: Muscarinic acetylcholine receptor M2 (Homo sapiens, UniProt P08172); also: assay procedure not described here
Sequence (P08172 whole entry): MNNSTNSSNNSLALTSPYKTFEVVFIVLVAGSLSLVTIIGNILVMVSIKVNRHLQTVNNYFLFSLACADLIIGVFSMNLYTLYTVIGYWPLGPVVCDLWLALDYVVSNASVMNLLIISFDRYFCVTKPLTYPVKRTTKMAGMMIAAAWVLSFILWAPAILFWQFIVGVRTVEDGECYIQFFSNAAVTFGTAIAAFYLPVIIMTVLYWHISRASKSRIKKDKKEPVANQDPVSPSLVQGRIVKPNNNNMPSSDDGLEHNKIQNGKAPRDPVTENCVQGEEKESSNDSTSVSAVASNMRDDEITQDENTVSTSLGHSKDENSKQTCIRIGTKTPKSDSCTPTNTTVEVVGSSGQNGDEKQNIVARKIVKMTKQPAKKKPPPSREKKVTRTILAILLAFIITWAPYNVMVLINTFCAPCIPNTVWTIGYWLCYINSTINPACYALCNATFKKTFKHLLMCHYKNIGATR
Format: functional, cell-based

Bench note: what AC50 did CN1CCC2=C(C1)C(c1ccccc1)c1ccccc12 (centres undefined) show?
> 10 µM

# lookup: AC50 of CN1C(=O)COc2c(C(=O)NC3CN4CCC3CC4)cc(Cl)cc21 (centres undefined)
> 30 µM

Request the reported AC50 associated with C#CCN(C)[C@H](C)Cc1ccccc1
> 10 µM

Value lookup for AC50; key = CN1CCN(C(=O)OC2c3nccnc3C(=O)N2c2ccc(Cl)cn2)CC1 (centres undefined)
> 10 µM

I am curious: what AC50 value has been reported for COc1ccc(C(=O)NCc2ccc(OCCN(C)C)cc2)cc1OC [ITOPRIDE] ?
> 30 µM

I am curious: what AC50 value has been reported for COC(=O)N[C@H](C(=O)N[C@@H](Cc1ccccc1)[C@@H](O)CN(Cc1ccc(-c2ccccn2)cc1)NC(=O)[C@@H](NC(=O)OC)C(C)(C)C)C(C)(C)C ?
> 10 µM

Given CC(Cc1ccccc1)NCCC(c1ccccc1)c1ccccc1 (centres undefined) , state its recorded AC50.
> 10 µM

I have this compound here, CN1CC(=O)N2[C@H](c3ccc4c(c3)OCO4)c3[nH]c4ccccc4c3C[C@@H]2C1=O , and I need its recorded AC50.
> 10 µM

# lookup: AC50 of Cc1cccc(C)c1NC(=O)C1CCCCN1C (centres undefined) [MEPIVACAINE]
> 30 µM
